Tested on: human stomach cancer cell line SNU-16 (FGFR2 gene amplification)
Assay: SNU-16 growth inhibition assay
Type: cell-based
Details: read-out: SNU-16 (IC50 (nM)); cell growth, 3 days, Cell Counting Kit-8
Provide the reported IC50 of each item.
Please make sure the unit comes right after the number.

Please report IC50 for the following compound: "CCOCCOc1cc2c(ccn2C(=O)NC)cc1Oc1ccnc(NC(=O)c2ccc(CN3CC[C@@H](O)C3)s2)c1"
5.8 nM

Identify measured IC50 associated with "CCOCCOc1cc2c(ccn2C(=O)NC)cc1Oc1ccnc(NC(=O)c2ccc(C3CN(C)C3)cc2)c1"
3.7 nM

----------
Could you please report measured T/C (%) for the items listed next?
System: human stomach cancer cell line SNU-16 xenograft
Test: Antitumor effect in SNU-16 subcutaneous xenograft model in mice
Assay type: in vivo
Settings: 12.5 mg/kg, oral, once a day for 11 days, tumor volume last day
Excerpt: Human stomach cancer cell line SNU-16, which had been cultured in an RPMI-1640 medium containing 10% FBS, and penicillin and streptomycin, were adjusted to a concentration of 1×10^8 cells/mL with Hanks' Balanced Salt Solution (GIBCO #24020) to prepare a cell suspension, and the suspension was mixed with […] (BD Biosciences, Cat#354234) in a ratio of 1:1 to prepare a cell suspension in a concentration of 5×10^7 cells/ml. […]
Answer with a number only, understood to be in %.

Identify T/C (%) associated with the compound CNC(=O)n1ccc2cc(Oc3ccnc(NC(=O)c4ccc(C5CCN(CCO)CC5)cc4)c3)c(OCCOC)cc21 [Example 22]
26

Give me measured T/C (%), please, for this compound: CCOCCOc1cc2c(ccn2C(=O)NC)cc1Oc1ccnc(NC(=O)c2ccc(C3CN(CC)C3)cc2)c1 [Example 26]
36

Please list T/C (%) recorded for the compound CNC(=O)n1ccc2cc(Oc3ccnc(NC(=O)c4ccc(C5CCN(C)CC5)cc4)c3)c(OCCOC)cc21 [Example 21]
26

Query T/C (%) for CCOCCOc1cc2c(ccn2C(=O)NC)cc1Oc1ccnc(NC(=O)c2ccc(C3CCN(CCO)CC3)cc2)c1 [Example 25]
23

For the compound CNC(=O)n1ccc2cc(Oc3ccnc(NC(=O)c4ccc(C5CCN(C[C@H](C)O)CC5)cc4)c3)c(OC)cc21 [Example 4] , give its reported T/C (%).
27

Given the compound CCOc1cc2c(ccn2C(=O)NC)cc1Oc1ccnc(NC(=O)c2ccc(C3CCN(CC)CC3)cc2)c1 [Example 16] , write its reported T/C (%).
21

Quickly give me recorded T/C (%) for CCN1CCC(c2ccc(C(=O)Nc3cc(Oc4cc5ccn(C(=O)NC)c5cc4OC)ccn3)cc2)CC1 [Example 2]
28

Kindly indicate its recorded T/C (%). Item: CNC(=O)n1ccc2cc(Oc3ccnc(NC(=O)c4ccc(C5CCN(CCO)CC5)cc4)c3)c(OC)cc21 [Example 3]
27

----------
Test system: human lung cancer cell line NCI-H1581 xenograft
Assay: Antitumor effect in NCI-H1581 subcutaneous xenograft model in mice
Format: in vivo
Conditions: 12.5 mg/kg, oral, once a day for 11 days, tumor volume last day
For each entry below, report its T/C (%) value.
Answer with a number only, understood to be in %.

Annotate the compound CNC(=O)n1ccc2cc(Oc3ccnc(NC(=O)c4ccc(C5CCN(CCO)CC5)cc4)c3)c(OCCOC)cc21 [Example 22] with its measured T/C (%).
21

Look up T/C (%) of CCN1CCC(c2ccc(C(=O)Nc3cc(Oc4cc5ccn(C(=O)NC)c5cc4OC)ccn3)cc2)CC1 [Example 2] and report it.
19

Input CNC(=O)n1ccc2cc(Oc3ccnc(NC(=O)c4ccc(C5CCN(C)CC5)cc4)c3)c(OCCOC)cc21 [Example 21] , output reported T/C (%).
18

Identify T/C (%) associated with the compound CCOc1cc2c(ccn2C(=O)NC)cc1Oc1ccnc(NC(=O)c2ccc(C3CCN(CC)CC3)cc2)c1 [Example 16]
25

Recorded values, source patent US8933099B2.
